testSystem: Histamine H2 receptor (Homo sapiens)
Sequence (P25021 whole entry): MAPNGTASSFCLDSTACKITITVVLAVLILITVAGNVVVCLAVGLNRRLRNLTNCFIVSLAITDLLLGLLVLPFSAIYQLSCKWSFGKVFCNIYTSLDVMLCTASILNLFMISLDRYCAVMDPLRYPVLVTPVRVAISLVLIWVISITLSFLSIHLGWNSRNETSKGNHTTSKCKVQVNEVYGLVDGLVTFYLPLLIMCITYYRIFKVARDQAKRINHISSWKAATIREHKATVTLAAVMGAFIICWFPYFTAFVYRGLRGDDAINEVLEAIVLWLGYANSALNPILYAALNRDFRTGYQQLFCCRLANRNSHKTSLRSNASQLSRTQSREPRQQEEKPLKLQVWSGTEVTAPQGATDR
pKi: −log10 of the molar value.

molecule | pKi
CN1CCC2C(C1)c1cccc3c1N2c1ccccc1CS3 (stereo unspecified) | 7.10

* * *

testSystem: 5-hydroxytryptamine receptor 2C (Homo sapiens, UniProt P28335)
Sequence (P28335 whole entry): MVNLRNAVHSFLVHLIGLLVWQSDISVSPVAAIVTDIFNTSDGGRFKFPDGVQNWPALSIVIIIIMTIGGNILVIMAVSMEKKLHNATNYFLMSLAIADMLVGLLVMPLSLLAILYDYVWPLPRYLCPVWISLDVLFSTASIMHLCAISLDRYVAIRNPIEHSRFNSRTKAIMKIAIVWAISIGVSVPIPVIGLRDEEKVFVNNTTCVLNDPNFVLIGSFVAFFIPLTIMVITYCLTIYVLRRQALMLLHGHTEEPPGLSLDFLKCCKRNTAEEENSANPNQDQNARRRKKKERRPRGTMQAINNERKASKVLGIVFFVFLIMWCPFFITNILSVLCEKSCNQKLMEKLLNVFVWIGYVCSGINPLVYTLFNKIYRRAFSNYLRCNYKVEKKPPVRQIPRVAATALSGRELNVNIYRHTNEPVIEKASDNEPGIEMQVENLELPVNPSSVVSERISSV
pKi: −log10 of the molar value.

compound | pKi
CN1CCC2C(C1)c1cccc3c1N2c1ccccc1CS3 (stereo unspecified) | 8.10
